Values were extracted from ChEMBL document CHEMBL4715876.

assay: Plasma concentration in CB.17 SCID mouse xenografted with TMD-8 cells at 3 mg/kg, po once daily for 19 days; format: ADME, organism-based; conditions: time 19 day
Attribute: concentration at 456 h
Your answer should be a plain number; it is taken to be in nM.

Molecule	concentration at 456 h / nM
C[C@H](Nc1nc(N)nc(N)c1C#N)c1c(-c2ccccc2)c(=O)n2cc(F)ccc2c1-c1ccc(F)cc1	700

# evaluate next
Reported concentration at 456 h ( CC[C@H](Nc1ncnc2[nH]cnc12)c1nc2cccc(F)c2c(=O)n1-c1ccccc1 [IDELALISIB] ) = 20

====

experiment: AUClast in Sprague-Dawley rat at 2 mg/kg, iv measured upto 24 hrs by LC-MS/MS analysis; assay type: ADME, organism-based; design: route intravenous, dose 2 mg/kg, time <=24; settings: in vivo
Quantity Measured: AUC(0-t) at 24 h (µM·h)
Your answer should be a plain number; it is taken to be in µM·h.

Reported AUC(0-t) at 24 h ( C[C@H](Nc1ncnc2[nH]cnc12)c1nc2cccc(Cl)c2c(=O)n1-c1ccccc1 ) = 2.77

====

assay: AUClast in BALB/C mouse at 1 mg/kg, iv measured upto 24 hrs by LC-MS analysis; type: ADME, organism-based; design: route intravenous, dose 1 mg/kg, time <= 24; details: in vivo
Quantity Measured: AUC(0-t) at 24 h (µM·h)
Your answer should be a plain number; it is taken to be in µM·h.

Smi	AUC(0-t) at 24 h (µM·h)
C[C@H](Nc1nc(N)nc(N)c1C#N)c1cc(=O)n2cc(F)ccc2c1-c1cc(F)cc(F)c1	2
C[C@H](Nc1nc(N)nc(N)c1C#N)c1c(-c2ccccc2)c(=O)n2cc(F)ccc2c1C1CC1	1.5
C[C@H](Nc1nc(N)nc(N)c1C#N)c1c(-c2ccccc2)c(=O)n2cc(F)ccc2c1-c1ccc(F)cc1	5.7
Cc1c([C@H](C)Nc2nc(N)nc(N)c2C#N)c(-c2ccccc2)c(=O)n2cc(F)ccc12	0.8

Reported AUC(0-t) at 24 h ( C[C@H](Nc1nc(N)nc(N)c1C#N)c1cc2ccc(F)cn2c(=O)c1-c1ccccc1 ) = 1.6

====

assay: AUClast in Sprague-Dawley rat at 10 mg/kg, po measured upto 24 hrs by LC-MS/MS analysis; format: ADME, organism-based; parameters: route oral, dose 10 mg/kg, time <=24; conditions: in vivo
Quantity Measured: AUC(0-t) at 24 h (µM·h)
Your answer should be a plain number; it is taken to be in µM·h.

Reported AUC(0-t) at 24 h ( C[C@H](Nc1nc(N)nc(N)c1C#N)c1c(-c2ccccc2)c(=O)n2cc(F)ccc2c1-c1ccc(F)cc1 ) = 36

====

test: Oral bioavailability in Sprague-Dawley rat at 10 mg/kg measured upto 24 hrs by LC-MS/MS analysis; type: ADME, organism-based; settings: in vivo
Quantity Measured: bioavailability (%)
Your answer should be a plain number; it is taken to be in %.

Smi	bioavailability, %
C[C@H](Nc1ncnc2[nH]cnc12)c1nc2cccc(Cl)c2c(=O)n1-c1ccccc1	57

# evaluate next
Reported bioavailability ( C[C@H](Nc1nc(N)nc(N)c1C#N)c1c(-c2ccccc2)c(=O)n2cc(F)ccc2c1-c1ccc(F)cc1 ) = 33
